# EXPERIMENTAL SYSTEM: Cathepsin K (Homo sapiens, UniProt P43235)
# Sequence (P43235 115-329, species assumed): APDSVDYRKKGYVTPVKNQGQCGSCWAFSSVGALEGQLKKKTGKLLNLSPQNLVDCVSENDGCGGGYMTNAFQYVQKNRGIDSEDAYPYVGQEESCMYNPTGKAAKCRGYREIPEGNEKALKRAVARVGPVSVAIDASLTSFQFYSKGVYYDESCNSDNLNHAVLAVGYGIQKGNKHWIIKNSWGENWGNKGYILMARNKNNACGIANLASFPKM
# EXPERIMENT SUMMARY: Cathepsin K inhibition assay (fluorogenic peptide substrate); selectivity ratio vs cathepsin S
# Assay type: biochemical
# CONDITION SET: ratio of cathepsin K inhibition constant to cathepsin S inhibition constant; Table II
OBSERVATION TYPE: Selectivity for Cat. S over Cat. K

For orientation, consider the following solved cases.
> print(dat)
                                   compound                       experimental.system                    observation.type    observed.value
1  COc1ccc(NCCNC(=O)[C@H](Cc2ccc(Oc3ccc(Cl)cc3)cc2)NC(=O)c2cccc(C)c2)cc1  Cathepsin K (Homo sapiens, UniProt P43235)  Selectivity for Cat. S over Cat. K     ++ (++, >100)
2  O=C(N[C@@H](CC1CCCCC1)C(=O)NCCNc1ccc(OC(F)(F)F)cc1)c1ccc(Oc2ccccc2)cc1  Cathepsin K (Homo sapiens, UniProt P43235)  Selectivity for Cat. S over Cat. K        + (+, >10)
3  CC[C@@H](C(=O)N[C@@H](CCC1CCCCC1)C(=O)NCCNc1ccc(OC)cc1)c1ccccc1  Cathepsin K (Homo sapiens, UniProt P43235)  Selectivity for Cat. S over Cat. K  +++ (+++, >1000)
4  COc1ccc(NCCNC(=O)C(NC(=O)c2cccc(C)c2)C(C)c2ccccc2)cc1 (stereo not shown) [Compound 269]  Cathepsin K (Homo sapiens, UniProt P43235)  Selectivity for Cat. S over Cat. K        + (+, >10)
5  CS(=O)(=O)c1ccc(C(=O)N[C@@H](CC2CCCCC2)C(=O)NCCNc2ccc(OC(F)(F)F)cc2)cc1  Cathepsin K (Homo sapiens, UniProt P43235)  Selectivity for Cat. S over Cat. K        + (+, >10)

Moving on to the next compound.
What value of Selectivity for Cat. S over Cat. K has been reported for the following compound? COc1ccc(NCCNC(=O)[C@H](Cc2ccc(Oc3cccc(C)c3C)cc2)NC(=O)c2cccc(C)c2)cc1
++ (++, >100)
